TARGET_OR_TEST_SYSTEM: Jak3 (Homo sapiens, UniProt P52333)
Construct: Jak3 enzyme (aa 811-1103); GST
Sequence (P52333 811-1103): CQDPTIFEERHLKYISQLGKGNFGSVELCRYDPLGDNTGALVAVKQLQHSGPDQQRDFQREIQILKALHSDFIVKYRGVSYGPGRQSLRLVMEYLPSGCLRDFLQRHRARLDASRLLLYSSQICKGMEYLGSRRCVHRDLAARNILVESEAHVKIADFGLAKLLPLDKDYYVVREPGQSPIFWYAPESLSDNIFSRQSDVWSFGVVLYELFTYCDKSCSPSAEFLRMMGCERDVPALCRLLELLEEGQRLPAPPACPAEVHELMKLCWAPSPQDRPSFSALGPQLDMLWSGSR
EXPERIMENTAL_PROTOCOL: Jak3 enzyme data for selected compounds
READOUT_LABEL: IC50

[Q] Fill in: IC50 on Jak3 (Homo sapiens, UniProt P52333), entry C[C@@H]1C[C@H](NS(=O)(=O)C2CC2)C[C@@H]1c1cnc2cnc3[nH]ccc3n12 (single isomer, unassigned)
[A] < 100 nM

[Q] Give the observed IC50 of "C[C@@H]1CCN(C(=O)N2CCC(F)(F)C2)C[C@@H]1c1ncc2cnc3[nH]ccc3n12" for Jak3 (Homo sapiens, UniProt P52333).
[A] < 100 nM

[Q] Return reported IC50 for target or system Jak3 (Homo sapiens, UniProt P52333), item "C#CCCC(=O)N1CC[C@@H](C)[C@@H](c2ncc3cnc4[nH]ccc4n23)C1" .
[A] < 100 nM

[Q] Write down measured IC50 (Jak3 (Homo sapiens, UniProt P52333)) for this compound. "O=C(N1CCC[C@@H](c2ncc3cnc4[nH]ccc4n23)C1)N1CCCC(F)(F)C1"
[A] 100 to 1000 nM

[Q] Enter IC50 (test system Jak3 (Homo sapiens, UniProt P52333)) for O=C(N1CCC(F)(F)CC1)N1CCC[C@@H](c2cnc3cnc4[nH]ccc4n23)C1 (single isomer, unassigned)
[A] 100 to 1000 nM

###

Listed next: entries and their corresponding pIC50.
TARGET_OR_TEST_SYSTEM: Jak3 (Homo sapiens, UniProt P52333)
Construct: Jak3 enzyme (aa 811-1103); GST
EXPERIMENTAL_PROTOCOL: Jak3 enzyme data for selected compounds
pIC50: −log10 of the molar value.

In the examples that follow, each entry is paired with its recorded pIC50.
- COMPOUND: "CC[C@@H]1C[C@H](N(C)S(=O)(=O)C2CC2)C[C@@H]1c1nnc2cnc3[nH]ccc3n12"
  pIC50: "6.00 to 7.00"
- COMPOUND: "CC[C@@H]1C[C@@H](Oc2ccc(C(F)(F)F)cn2)C[C@@H]1c1nnc2cnc3[nH]ccc3n12 (single isomer, unassigned)"
  pIC50: "< 6.00"
- COMPOUND: "O=S(=O)(CCC(F)(F)F)NC[C@H]1CC[C@H](c2ncc3cnc4[nH]ccc4n23)C1 (single isomer, unassigned)"
  pIC50: "< 6.00"
- COMPOUND: "CC[C@@H]1C[C@H](OC2CCOCC2)C[C@@H]1c1nnc2cnc3[nH]ccc3n12"
  pIC50: "< 6.00"
- COMPOUND: "C[C@@H]1CCN(C(=O)CC(F)(F)F)C[C@@H]1c1ncc2cnc3[nH]ccc3n12"
  pIC50: "> 7.00"

[Q] Look up pIC50 of "CC[C@@H]1C[C@H](NS(=O)(=O)CCN2CCOCC2)C[C@@H]1c1nnc2cnc3[nH]ccc3n12" and report it.
[A] < 6.00

[Q] Please list pIC50 recorded for the compound C[C@H]1CCN(C(=O)N2CC[C@@H](C)[C@@H](c3ncc4cnc5[nH]ccc5n34)C2)C1 (racemic)
[A] > 7.00

[Q] Please indicate pIC50 recorded for "O=S(=O)(NC12CCC(c3nnc4cnc5[nH]ccc5n34)(CC1)CC2)C1CCC1"
[A] 6.00 to 7.00

[Q] // fetch pIC50 given entry "C[C@@H]1CCN(C(=O)CCC#N)C[C@@H]1c1ncc2cnc3[nH]ccc3n12"
[A] > 7.00

[Q] Using the record for "CC[C@@H]1C[C@H](NS(=O)(=O)C2CC2)C[C@@H]1c1nc(Br)c2cnc3[nH]ccc3n12" , state its measured pIC50.
[A] > 7.00

###

TARGET_OR_TEST_SYSTEM: Jak3 (Homo sapiens)
Construct: Jak3 enzyme (aa 811-1103); GST
EXPERIMENTAL_PROTOCOL: Jak3 enzyme data for selected compounds
READOUT_LABEL: IC50

- COMPOUND: "CC[C@@H]1C[C@H](NS(=O)(=O)C2CC2)CN1c1ncc2cnc3[nH]ccc3n12"
  IC50: "< 100 nM"
- COMPOUND: "CC[C@@H]1C[C@H](N(CO)S(=O)(=O)C2CC2)C[C@@H]1c1nnc2cnc3[nH]cc(C)c3n12"
  IC50: "> 1000 nM"
- COMPOUND: "CC[C@@H]1C[C@H](NS(=O)(=O)N2CC(F)(F)C2)C[C@@H]1c1cnc2cnc3[nH]ccc3n12 (single isomer, unassigned)"
  IC50: "< 100 nM"
- COMPOUND: "C[C@@H]1CCN(C(=NC#N)N2CCCC2)C[C@@H]1c1ncc2cnc3[nH]ccc3n12"
  IC50: "100 to 1000 nM"
- COMPOUND: "C[C@@H]1C[C@H](NS(=O)(=O)CCC(F)(F)F)C[C@@H]1c1ncc2cnc3[nH]ccc3n12"
  IC50: "< 100 nM"

[Q] Report IC50, nothing else, for this compound: "C[C@@H]1CCN(C(=O)N2CC[C@H](F)C2)C[C@@H]1c1ncc2cnc3[nH]ccc3n12"
[A] < 100 nM

[Q] # return recorded IC50 for entry CC[C@H]1C[C@@H](NS(=O)(=O)C2CC2)C[C@]1(F)c1nnc2cnc3[nH]ccc3n12 (single isomer, unassigned)
[A] 100 to 1000 nM

###

TARGET_OR_TEST_SYSTEM: Jak3 (Homo sapiens)
Construct: Jak3 enzyme (aa 811-1103); GST
EXPERIMENTAL_PROTOCOL: Jak3 enzyme data for selected compounds
READOUT_LABEL: IC50

Worked cases, answers included:
- MOLECULE: "O=S(=O)(NC12CCC(c3n[nH]c4cnc5[nH]ccc5c34)(CC1)CC2)C1CC1 [Example #29]"
  TARGET_OR_TEST_SYSTEM: "Jak3 (Homo sapiens)"
  IC50: "< 100 nM"
- MOLECULE: "O=S(=O)(CCC(F)(F)F)NC[C@H]1CC[C@@H](c2ncc3cnc4[nH]ccc4n23)C1 (single isomer, unassigned) [AA.1.62]"
  TARGET_OR_TEST_SYSTEM: "Jak3 (Homo sapiens)"
  IC50: "100 to 1000 nM"
- MOLECULE: "CC[C@@H]1C[C@H](Nc2ccc(C#N)cn2)C[C@@H]1c1nnc2cnc3[nH]ccc3n12 [D.2.19]"
  TARGET_OR_TEST_SYSTEM: "Jak3 (Homo sapiens)"
  IC50: "100 to 1000 nM"

Now examine the next entry.
[Q] Give the value of IC50 reported for the following: C[C@H]1CCN(C(=O)N2CC(C#N)C2)C[C@H]1c1ncc2cnc3[nH]ccc3n12 (racemic) [J.1.1]
[A] < 100 nM

###

TARGET_OR_TEST_SYSTEM: Jak3 (Homo sapiens, UniProt P52333)
Construct: Jak3 enzyme (aa 811-1103); GST
EXPERIMENTAL_PROTOCOL: Jak3 enzyme data for selected compounds
Measured IC50 values are reported for all entries that follow.

In the examples that follow, each entry is paired with its recorded IC50.
- MOLECULE: "CC[C@@H]1C[C@@H](Oc2ccc(C#N)cc2)C[C@@H]1c1nnc2cnc3[nH]ccc3n12"
  IC50: "< 100 nM"
- MOLECULE: "C[C@@H]1CCN(C(=O)N2CCCCC2)C[C@@H]1c1ncc2cnc3[nH]ccc3n12"
  IC50: "< 100 nM"
- MOLECULE: "CC[C@@H]1C[C@H](NS(=O)(=O)C2CC2)C[C@@H]1c1nc(CCO)c2cnc3[nH]ccc3n12"
  IC50: "100 to 1000 nM"
- MOLECULE: "CCC1(S(=O)(=O)N[C@H]2C[C@@H](C)[C@@H](c3ncc4cnc5[nH]ccc5n34)C2)CC1"
  IC50: "< 100 nM"

[Q] State its IC50: CC[C@@H]1C[C@@H](Oc2ccc(C#N)cc2F)C[C@@H]1c1nnc2cnc3[nH]ccc3n12 (single isomer, unassigned)
[A] < 100 nM

[Q] Quickly give me recorded IC50 for CC[C@@H]1C[C@H](OCc2ccc(OC)cc2)C[C@H]1c1n[nH]c2cnc3[nH]ccc3c12 (single isomer, unassigned)
[A] 100 to 1000 nM

[Q] Give the measured IC50 for "CC[C@@H]1C[C@H](N(CC2CC2)S(=O)(=O)C2CC2)C[C@@H]1c1nnc2cnc3[nH]ccc3n12"
[A] 100 to 1000 nM

###

TARGET_OR_TEST_SYSTEM: Jak3 (Homo sapiens, UniProt P52333)
Construct: Jak3 enzyme (aa 811-1103); GST
EXPERIMENTAL_PROTOCOL: Jak3 enzyme data for selected compounds
READOUT_LABEL: IC50

Here's what some known entries look like.
- COMPOUND: "C[C@@H]1CCN(S(=O)(=O)N2CCCC2)C[C@@H]1c1ncc2cnc3[nH]ccc3n12 [DD.1.1]"
  IC50: "< 100 nM"
- COMPOUND: "C[C@@H]1CCN(C(=O)N2CCC[C@@H]2C(F)(F)F)C[C@@H]1c1ncc2cnc3[nH]ccc3n12 [J.2.15]"
  IC50: "< 100 nM"
- COMPOUND: "CC1(S(=O)(=O)NC23CCC(c4nnc5cnc6[nH]ccc6n45)(CC2)CC3)CC1 [D.1.33]"
  IC50: "> 1000 nM"
- COMPOUND: "CC[C@H]1C[C@@H](NS(=O)(=O)CCC(F)(F)F)C[C@H]1c1cnc2cnc3[nH]ccc3n12 (single isomer, unassigned) [AA.1.76]"
  IC50: "> 1000 nM"
- COMPOUND: "CC[C@@H]1C[C@H](NS(=O)(=O)C2CC2)C[C@@H]1c1nc(CO)c2cnc3[nH]ccc3n12 [Example #17]"
  IC50: "< 100 nM"
- COMPOUND: "C[C@@H]1CCN(C(=O)N2CCC[C@H]2C#N)C[C@@H]1c1ncc2cnc3[nH]ccc3n12 [J.2.3]"
  IC50: "< 100 nM"
- COMPOUND: "O=C(N1CCC[C@@H](c2ncc3cnc4[nH]ccc4n23)C1)N1CC(F)(F)C1 [J.3.1]"
  IC50: "< 100 nM"
- COMPOUND: "N#Cc1cnc(N2CCC[C@@H](c3cnc4cnc5[nH]ccc5n34)C2)s1 (single isomer, unassigned) [AA.1.22]"
  IC50: "< 100 nM"
- COMPOUND: "CC[C@@H]1C[C@H](OCC2CCOCC2)C[C@@H]1c1nnc2cnc3[nH]ccc3n12 (single isomer, unassigned) [AA.1.67]"
  IC50: "> 1000 nM"
- COMPOUND: "CC[C@H]1C[C@@H](Oc2cnc(C#N)cn2)C[C@@H]1c1nnc2cnc3[nH]ccc3n12 (single isomer, unassigned) [AA.1.97]"
  IC50: "> 1000 nM"

[Q] Provide one value: measured IC50 of O=C(N1CCC(Cl)CC1)N1CCC[C@@H](c2ncc3cnc4[nH]ccc4n23)C1 [J.3.11]
[A] < 100 nM

[Q] Output IC50 of CS(=O)(=O)Nc1ccc(-c2nc(C3CCCCC3)n3c2cnc2[nH]ccc23)cc1 [UUU.1.1]
[A] < 100 nM

[Q] Output measured IC50 for this item: C[C@@H]1C[C@H](NS(=O)(=O)N2CC(F)(F)C2)C[C@@H]1c1cnc2cnc3[nH]ccc3n12 (single isomer, unassigned) [Example #25]
[A] < 100 nM

[Q] Kindly indicate its recorded IC50. Item: CC1(C)CCN(C(=O)N2CCC[C@@H](c3ncc4cnc5[nH]ccc5n34)C2)C1 [J.3.6]
[A] 100 to 1000 nM

[Q] Supply recorded IC50 for CC[C@@H]1CCN(C(=O)CC#N)C[C@@H]1c1ncc2cnc3[nH]ccc3n12 (single isomer, unassigned) [AA.1.54] here.
[A] 100 to 1000 nM

[Q] Return reported IC50. Input compound: C[C@H]1C[C@H](Oc2ccc(C#N)cc2)C[C@H]1c1nnc2cnc3[nH]ccc3n12 (single isomer, unassigned) [AA.1.93]
[A] > 1000 nM

[Q] Return value of IC50 for input CC[C@@H]1C[C@@H](OCc2cccc(C#N)c2)C[C@@H]1c1nnc2cnc3[nH]ccc3n12 (single isomer, unassigned) [AA.1.99] , no commentary.
[A] 100 to 1000 nM

Numbers sourced from patent USRE47221E1.
